Catalogue of compounds with associated Em. max. (estimated)
- MEASUREMENT NOTES: fluorescence emission spectroscopy of marker in xylene solution
- Assay type: physicochemical
- SETTINGS: not experimental; estimated based on the values of formulas (II) and (III)

Value of measured Em. max. (estimated) for the entry CCCCC(CC)CNc1ccc2c3c(cc(=O)n2C)-c2ccccc2C(=O)c13 (stereo not drawn) : 575-600 nm

Value of measured Em. max. (estimated) for the entry "O=C1c2ccccc2-c2cc(=O)n(Cc3ccccc3)c3ccc(NCc4ccccc4)c1c23" : 575-600 nm

Value of measured Em. max. (estimated) for the entry "Cn1c(=O)cc2c3c(c(NCc4ccccc4)ccc31)C(=O)c1ccccc1-2" : 575-600 nm
